# Test system: isolated guinea pig hearts
# Protocol details: coronary flowthrough-increasing effectiveness on isolated guinea pig hearts according to Langendorff
# Measurement context: Cavia porcellus; 25 μg/ml in tyrode solution, Langendorff heart; read-out: flowthrough (coronary), percentage change in comparison with the initial value
Would you kindly list activation at 25 µg/mL for each of these molecules?
Form field: result (number plus unit)

Record Nc1ncnc2c1ncn2CCN[C@H]1CO[C@H]2[C@@H]1OC[C@@H]2O[N+](=O)[O-] . Reported activation at 25 µg/mL: 12.2%

The molecule listed as Nc1ncnc2c1ncn2CCCCCN[C@H]1CO[C@H]2[C@@H]1OC[C@@H]2O[N+](=O)[O-] has a reported activation at 25 µg/mL of 22.5%

Entry Cn1c(=O)c2c(ncn2CCN[C@H]2CO[C@H]3[C@@H]2OC[C@@H]3O[N+](=O)[O-])n(C)c1=O , activation at 25 µg/mL reported as 34.7%

Measured activation at 25 µg/mL, Cn1c(=O)c2c(ncn2CCCCN[C@H]2CO[C@H]3[C@@H]2OC[C@@H]3O[N+](=O)[O-])n(C)c1=O : 36.4%

All values here come from patent US4542137A.
